Could you please report measured RGA IC50 [pM] (HEK293T BRE-Luc reporter gene assay) for the items listed next?
Tgt: T1, human BMP9 (BMP9/Growth Differentiation Factor 2 [Homo sapiens], NP_057288) (human, UniProt Q9UK05 320-429, limits assumed)
T1 sequence: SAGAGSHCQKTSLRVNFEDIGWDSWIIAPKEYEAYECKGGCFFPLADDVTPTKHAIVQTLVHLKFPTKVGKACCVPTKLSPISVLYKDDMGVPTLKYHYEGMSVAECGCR
Assay Overview: cell-based or functional assay
Unit pM implied. Number only.

Which measured RGA IC50 [pM] (HEK293T BRE-Luc reporter gene assay) value corresponds to Antibody BMP9-8: MOR023793 (antibody, human IgG1, kappa, V domains shown, Fully human, phage display) VH: QVQLVQSGAEVKKPGASVKVSCKASGYTFTSYYMNWVRQAPGQGLEWMGWINPVQGNTNYAQKFQGRVTMTRDTSISTAYMELSRLRSEDTAVYYCARNYFDVWGQGTLVTVSS VL: DIQMTQSPSSLSASVGDRVTITCRASQTISNFLAWYQQKPGKAPKLLIYAASNLQSGVPSRFSGSGSGTDFTLTISSLQPEDFAVYYCQQLYAESITFGQGTKVEIKR ?
113

Which measured RGA IC50 [pM] (HEK293T BRE-Luc reporter gene assay) value corresponds to Antibody BMP9-3: MOR023795 (antibody, human IgG1, lambda, V domains shown, Fully human, phage display) VH: EVQLVQSGAEVKKPGESLKISCKGSGYSFTTYWIGWVRQMPGKGLEWMGIIYPEGSYTTYSPSFQGQVTISADKSISTAYLQWSSLKASDTAMYYCARGKRVDASSFDYWGQGTLVTVSS VL: QSVLTQPPSVSGAPGQRVTISCSGSSSNIGDNYVSWYQQLPGTAPKLLIYRNNKRPSGVPDRFSGSKSGTSASLAITGLQAEDEADYYCSSTDKEHLVFGGGTKLTVLG ?
167

Which measured RGA IC50 [pM] (HEK293T BRE-Luc reporter gene assay) value corresponds to Antibody BMP9-6: MOR022965 (antibody, human IgG1, kappa, V domains shown, Fully human, phage display) VH: QVQLVQSGAEVKKPGSSVKVSCKASGGTFSSYAISWVRQAPGQGLEWMGHIIPHWGHARYAQKFQGRVTITADESTSTAYMELSSLRSEDTAVYYCARSASSLPHFHWFDYWGQGTLVTVSS VL: DIQMTQSPSSLSASVGDRVTITCRASQDINNYLNWYQQKPGKAPKLLIYAASRLQSGVPSRFSGSGSGTDFTLTISSLQPEDFATYYCQQRDTTPWTFGQGTKVEIKR ?
180

Which measured RGA IC50 [pM] (HEK293T BRE-Luc reporter gene assay) value corresponds to Antibody BMP9-9: MOR023796 (antibody, human IgG1, lambda, V domains shown, Fully human, phage display) VH: QVQLVQSGAEVKKPGSSVKVSCKASGGTFSDYAIHWVRQAPGQGLEWMGGIIPFFGTAYYAQKFQGRVTITADESTSTAYMELSSLRSEDTAVYYCARRIVSDSVAVQYRHAFDPWGQGTLVTVSS VL: QSVLTQPPSVSGAPGQRVTISCSGSSSNIGSNYVYWYQQLPGTAPKLLIYGNNNRPSGVPDRFSGSKSGTSASLAITGLQAEDEADYYCNAWDTKAYVWVFGGGTKLTVLG ?
130

Which measured RGA IC50 [pM] (HEK293T BRE-Luc reporter gene assay) value corresponds to Antibody BMP9-2: MOR022962 (antibody, human IgG1, kappa, V domains shown) VH: QVQLLESGGGLVQPGGSLRLSCAASGFTFSSYAMSWVRQAPGKGLEWVSITLGTGHTHYADSVKGRFTISRDNSKNTLYLQMNSLRAEDTAVYYCARGSYIIWSALDYWGQGTLVTVSS VL: DIQMTQSPSSLSASVGDRVTITCRASQDIRSYLNWYQQKPGKAPKLLIYDASNLQSGVPSRFSGSGSGTDFTLTISSLQPEDFATYYCQQSDTSPLTFGQGTKVEIKR ?
138

Which measured RGA IC50 [pM] (HEK293T BRE-Luc reporter gene assay) value corresponds to Antibody BMP9-7: MOR023787 (antibody, human IgG1, lambda, V domains shown, Fully human, phage display) VH: QVQLVESGGGLVKPGGSLRLSCAASGFTFSSAWMSWVRQAPGKGLEWVGHIKSKTYGGTIDYAAPVKGRFTISRDDSKNTLYLQMNSLKTEDTAVYYCARVGGYYGYGYAFAYWGQGTLVTVSS VL: SYELTQPLSVSVALGQTARITCSGDNIGDKYVSWYQQKPGQAPVLVIYDDNKRPSGIPERFSGSNSGNTATLTISRAQAGDEADYYCSSTASKSFNVFGGGTKLTVLG ?
118
